Ref: PubChem BioAssay AID1845194

System: 287954-098-R-J1 tumor spheroid viability;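 also: luminescent signal taken as surrogate of viable cell content; spheroids exposed to compound for 7 days before viability readout; 100% = DMSO vehicle control viability and lower means growth inhibition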
measurement_protocol: Anticancer human tumor 287954-098-R-J1 patient-derived Ewing sarcoma cell line growth inhibition; active = viability on the fitted dose curve at most 10% of control; inactive = the rest
condition: second compound 0.03 µM; first compound 10 µM; spheroids with HUVEC and MSC
Outcomes you can answer with include only these: 1.0 for active, 0.0 for inactive

-- ask Field: outcome | Entry: Cc1cc(C)c(CNC(=O)c2cc(-c3ccc(CN4CCOCC4)cc3)cc3c2cnn3C2CCCC2)c(=O)[nH]1 + CC[C@@]1(O)C(=O)OCc2c1cc1n(c2=O)Cc2cc3c(CN(C)C)c(O)ccc3nc2-1
-- reply 0.0

-- ask Per the records of this test, what outcome belongs to CC1COCCN1c1cc(-c2ccnn2C)c2ccnc(-c3ccn[nH]3)c2n1 (stereo unspecified) + CC[C@@]1(O)C(=O)OCc2c1cc1n(c2=O)Cc2cc3c(CN(C)C)c(O)ccc3nc2-1 ?
-- reply 1.0

-- ask Test call, this compound: CC(C)n1c(=O)n(C)c2cnc3cc(F)c(-c4ccc(OCCCN5CCCCC5)nc4)cc3c21 + CC[C@@]1(O)C(=O)OCc2c1cc1n(c2=O)Cc2cc3c(CN(C)C)c(O)ccc3nc2-1
-- reply 1.0

-- ask Query: recorded result category for [2H]c1nc(C)nc([2H])c1-c1cc(NC[C@@H](C)c2cccc3c(C(=O)NC)ccnc23)ncn1 + CC[C@@]1(O)C(=O)OCc2c1cc1n(c2=O)Cc2cc3c(CN(C)C)c(O)ccc3nc2-1 in this test
-- reply 1.0

-- ask Fill in: this test's call for COc1cc(C)[nH]c(=O)c1CN1CCc2c(Cl)cc(C(OC)C3COC3)c(Cl)c2C1=O (stereo unspecified) + CC[C@@]1(O)C(=O)OCc2c1cc1n(c2=O)Cc2cc3c(CN(C)C)c(O)ccc3nc2-1 is ___
-- reply 0.0

-- ask Outcome? COc1ccc([C@@H](O)c2cc(-c3ncnc4cc(N5CCOCC5)ccc34)c(F)cc2Cl)nn1 + CC[C@@]1(O)C(=O)OCc2c1cc1n(c2=O)Cc2cc3c(CN(C)C)c(O)ccc3nc2-1
-- reply 1.0
